# targetEntity: HLA-B*53:01
# testSummary: IEDB peptide-MHC binding, purified MHC/competitive/radioactivity; filed as Kd, often an IC50 or EC50 that approximates it; bounds were set here for any values at or beyond the usual limits of such assays
# runConditions: source organism: Lymphocytic choriomeningitis virus (strain WE)
assayReadout: Kd (nM)
The answer is to be given in nM; state only the numeric part.

Prompt: What value of Kd has been recorded for this entry: EPVESCPLM
Response: 177

----------
# targetEntity: HLA-B*40:01
# testSummary: IEDB peptide-MHC binding, purified MHC/competitive/radioactivity; filed as Kd, often an IC50 or EC50 that approximates it; bounds were set here for any values at or beyond the usual limits of such assays
# runConditions: source organism: Mammarenavirus guanaritoense
assayReadout: pKd
// scale note: pKd = -log10(conc_M); give the bare number

Prompt: Field request: pKd | item: AEFTFQLNL
Response: 7.18

----------
# targetEntity: HLA-A*30:01
# testSummary: IEDB peptide-MHC binding, purified MHC/direct/fluorescence; filed as Kd, often an IC50 or EC50 that approximates it; bounds were set here for any values at or beyond the usual limits of such assays
# runConditions: source organism: Giardia lamblia ATCC 50803
assayReadout: Kd (µM)
Entry rule: numbers only, all in µM.

| residueString | assayReadout | unitsSymbol | observedMeasurement |
| --- | --- | --- | --- |
| EFDNYRGTI | Kd | µM | 7.45 |

As a next step, examine the sequence that follows.
Prompt: State the recorded Kd for this entry: CYPRLWGVR
Response: 5.83

----------
# targetEntity: HLA-A*02:01
# testSummary: IEDB peptide-MHC binding, purified MHC/direct/fluorescence; filed as Kd, often an IC50 or EC50 that approximates it; bounds were set here for any values at or beyond the usual limits of such assays
# runConditions: source organism: Encephalitozoon cuniculi
assayReadout: pKd
Scale for pKd: -log10 of concentration given in mol/L; no unit attached.

Prompt: Given the entry YLVPGEGEQ , report its measured pKd.
Response: 5.15

----------
# targetEntity: HLA-B*18:01
# testSummary: IEDB peptide-MHC binding, purified MHC/direct/fluorescence; filed as Kd, often an IC50 or EC50 that approximates it; bounds were set here for any values at or beyond the usual limits of such assays
# runConditions: source organism: Influenza A virus (A/swine/Korea/S190/2004(H9N2))
assayReadout: Kd

Prompt: Dear colleague, I am looking for the recorded Kd of the following sequence: WIPKRNRSI
Response: ≥ 20 µM

----------
# targetEntity: HLA-C*14:02
# testSummary: IEDB peptide-MHC binding, purified MHC/competitive/fluorescence; filed as Kd, often an IC50 or EC50 that approximates it; bounds were set here for any values at or beyond the usual limits of such assays
# runConditions: source organism: Salmonella enterica subsp. arizonae serovar 62:z4,z23:-
assayReadout: Kd

Prompt: Would you mind telling me what Kd value was observed for YTIYGAWMF ?
Response: 347 nM

----------
# targetEntity: HLA-A*02:06
# testSummary: IEDB peptide-MHC binding, purified MHC/competitive/radioactivity; filed as Kd, often an IC50 or EC50 that approximates it; bounds were set here for any values at or beyond the usual limits of such assays
# runConditions: source organism: Dengue virus 3 Martinique/1243/1999
assayReadout: Kd

Prompt: Name the recorded Kd for YSIPATLLV .
Response: 0.0102 µM
